- Tested on: PC-3 prostate
- EXPERIMENT NOTES: NCI tumour cell line growth inhibition, 48 h
Readings of TGI for the listed compounds
REPORTED METRIC: TGI

[[record]]
compound = "O=C1c2cc([N+](=O)[O-])sc2C(=O)c2ccsc21"
reported_measurement = "1.8 µM"

[[record]]
compound = "CC1CC[C@@]2(OC1)OC1C[C@H]3[C@@H]4CCC5CC(O)CC[C@]5(C)[C@H]4C/C(=N\\N(C)C)[C@]3(C)C1[C@@H]2C (stereo partly drawn)"
reported_measurement = "84.6 µM"

[[record]]
compound = "C[N+](C)([O-])CCCNc1ccnc2cccc([N+](=O)[O-])c12"
reported_measurement = "> 100 µM"

[[record]]
compound = "Cc1nc2c(=O)[nH]c3ccc(Cl)cc3c2o1"
reported_measurement = "> 100 µM"

[[record]]
compound = "COP(C)(=O)C(Cc1c[nH]c2ccccc12)NC(=O)OCc1ccccc1 (stereo not drawn)"
reported_measurement = "> 100 µM"

[[record]]
compound = "CC(/C=N/NC1=NCCCN1)=N\\NC1=NCCCN1"
reported_measurement = "> 100 µM"

[[record]]
compound = "c1ccc2nc(OCCN3CC3)ccc2c1"
reported_measurement = "25.2 µM"

[[record]]
compound = "O=S(=O)(O)ONC1=NCCN1"
reported_measurement = "> 100 µM"

[[record]]
compound = "CN(C)CCNc1nc2ccccc2c2c(=O)c3ccccc3sc12"
reported_measurement = "4.13 µM"

[[record]]
compound = "CC1(C)CC2C(C1=O)C1(C)CCCC2(C)C1=O (stereo not drawn)"
reported_measurement = "> 100 µM"

[[record]]
compound = "NS(=O)(=O)c1ccc(NC(=O)Nc2ccccc2F)cc1"
reported_measurement = "> 100 µM"

[[record]]
compound = "Oc1ccc(Cl)cc1-c1cc(-c2ccc(F)cc2)n[nH]1"
reported_measurement = "8.81 µM"

[[record]]
compound = "Cc1cc(O)cc2c1c(=O)c1ccccc1n2C"
reported_measurement = "> 100 µM"

[[record]]
compound = "O=C1OC(=O)C2C1C(c1ccccc1[N+](=O)[O-])C=C(c1ccco1)N2c1ccncc1 (stereo not drawn)"
reported_measurement = "28.1 µM"

[[record]]
compound = "CN(C)CCn1nc(N)c2nc3cc(C(F)(F)F)ccc3nc21"
reported_measurement = "> 100 µM"

[[record]]
compound = "COc1cc2c(cc1OC)-c1ncc3cc4c(cc3c1C2)OCO4"
reported_measurement = "> 100 µM"

[[record]]
compound = "CSC1=C(C(=O)Nc2ccccc2)C(N)=NC1=O"
reported_measurement = "> 100 µM"

[[record]]
compound = "O=[As]c1ccc(C(=O)c2ccc(Oc3ccccc3)cc2)cc1 (stereo not drawn)"
reported_measurement = "0.142 µM"

[[record]]
compound = "CCN(CC)CCC(=O)c1ccc(Oc2ccc(F)cc2)cc1"
reported_measurement = "71.9 µM"

[[record]]
compound = "CC(=O)N(CN1C(=O)CCC1C(=O)O)c1ccccc1Cl (stereo not drawn)"
reported_measurement = "> 100 µM"

[[record]]
compound = "C=C1c2nc3ccccc3n2C=C(c2ccc(OC)cc2)N1c1ccc(OCCN2CCOCC2)cc1"
reported_measurement = "> 100 µM"

[[record]]
compound = "COc1ccc(NC(=O)/C=C(C)/C=C/C=C(C)\\C=C\\C2=C(C)CCCC2(C)C)cc1"
reported_measurement = "> 100 µM"

[[record]]
compound = "CC(C)c1cccc(C(C)C)c1OS(=O)(=O)NC(=O)OC(C(F)(F)F)C(F)(F)F"
reported_measurement = "> 100 µM"


====

- Test system: NCI/ADR-RES ovarian
- EXPERIMENT NOTES: NCI tumour cell line growth inhibition, 48 h
REPORTED METRIC: GI50

[[record]]
chemical_string = "O=C(CC(=O)c1ccccc1)c1ccccc1"
reported_measurement = "16.8 µM"

[[record]]
chemical_string = "COc1cc(-c2nn(-c3ccc(NC(=O)c4cc(Cl)cc(Cl)c4)cc3)cc2-c2ccncc2)ccc1Cl"
reported_measurement = "> 100 µM"

[[record]]
chemical_string = "N#Cc1cccc(OCc2ccccc2COc2cccc(C#N)c2)c1"
reported_measurement = "50.1 µM"

[[record]]
chemical_string = "O=c1c2c3c(sc2n2c(-c4ccc(Br)cc4)nnc2n1Cc1ccccc1)CCCC3"
reported_measurement = "12.8 µM"

[[record]]
chemical_string = "COc1ccc2c(c1)CC[C@@H]1[C@@H]2CC[C@]2(C)C=C(/C=C/C(=O)c3ccccc3)C[C@@H]12"
reported_measurement = "17.6 µM"


====

- Tested on: A498 renal
- EXPERIMENT NOTES: NCI tumour cell line growth inhibition, 48 h
The following compounds are listed with their measured TGI values.
REPORTED METRIC: TGI

[[record]]
chemical_string = "CC(C)c1cccc(C(C)C)c1OS(=O)(=O)NC(=O)OC(C(F)(F)F)C(F)(F)F"
subject_of_test = "A498 renal"
reported_measurement = "> 100 µM"

[[record]]
chemical_string = "CN(CCO)/N=N/c1[nH]ncc1C(N)=O"
subject_of_test = "A498 renal"
reported_measurement = "> 100 µM"

[[record]]
chemical_string = "COc1ccc2c(c1)CC[C@@H]1[C@@H]2CC[C@]2(C)C=C(/C=C/C(=O)c3ccccc3)C[C@@H]12"
subject_of_test = "A498 renal"
reported_measurement = "26.3 µM"


====

- Test system: NCI/ADR-RES ovarian
- EXPERIMENT NOTES: NCI tumour cell line growth inhibition, 48 h; in the data active = GI50 below about 0.43 µM; inactive = the rest
Classes used: active, inactive

[[record]]
chemical_string = "Cc1ccc2c(c1)C(=O)c1c-2n(CCCN=[N+]=[N-])c(=O)c2cc([N+](=O)[O-])ccc12"
subject_of_test = "NCI/ADR-RES ovarian"
class_label = "inactive"

[[record]]
chemical_string = "COc1ccc(-c2c(N)n[nH]c2-c2cc(OC)c(OC)c(OC)c2)cc1"
subject_of_test = "NCI/ADR-RES ovarian"
class_label = "active"

[[record]]
chemical_string = "C=CCCC(=O)N1C=CC(=O)[C@H](O)[C@@H]1/C=C/c1ccccc1"
subject_of_test = "NCI/ADR-RES ovarian"
class_label = "inactive"

[[record]]
chemical_string = "Oc1ccc(Cl)cc1-c1cc(-c2ccc(F)cc2)n[nH]1"
subject_of_test = "NCI/ADR-RES ovarian"
class_label = "inactive"

[[record]]
chemical_string = "O=C1c2ccn(CCCCN3CCC(O)CC3)c2C(=O)c2c1c(O)c1ccccc1c2O"
subject_of_test = "NCI/ADR-RES ovarian"
class_label = "inactive"

[[record]]
chemical_string = "O=C(Nc1cc(-c2cccnc2)nc(NCCCN2CCOCC2)n1)c1cc(Br)cc(C(F)(F)F)c1"
subject_of_test = "NCI/ADR-RES ovarian"
class_label = "inactive"

[[record]]
chemical_string = "ClCC#CCSc1ncnc2c1ncn2CC#CCCl"
subject_of_test = "NCI/ADR-RES ovarian"
class_label = "inactive"

[[record]]
chemical_string = "O=C(NCCCCOCC#Cc1ccccc1C#CCS(=O)(=O)c1ccccc1)c1cc2ccccc2[nH]1"
subject_of_test = "NCI/ADR-RES ovarian"
class_label = "inactive"

[[record]]
chemical_string = "CN(C)CCNc1nc2ccccc2c2c(=O)c3ccccc3sc12"
subject_of_test = "NCI/ADR-RES ovarian"
class_label = "inactive"

[[record]]
chemical_string = "O=C(Nc1ccc(I)cc1F)c1cc(I)ccc1O"
subject_of_test = "NCI/ADR-RES ovarian"
class_label = "inactive"

[[record]]
chemical_string = "Cn1ncc(-c2ccc3c(=O)[nH]nc(CN)c3c2)c1-c1c(F)cc2ccccc2c1C#N"
subject_of_test = "NCI/ADR-RES ovarian"
class_label = "inactive"


====

- Test system: RPMI-8226 leukemia
- EXPERIMENT NOTES: NCI tumour cell line growth inhibition, 48 h
REPORTED METRIC: TGI

[[record]]
molecule = "NS(=O)(=O)c1ccc(NC(=O)Nc2ccccc2F)cc1"
reported_metric = "TGI"
reported_measurement = "> 100 µM"

[[record]]
molecule = "CN(C)CCNc1nc2ccccc2c2c(=O)c3ccccc3sc12"
reported_metric = "TGI"
reported_measurement = "6.35 µM"

[[record]]
molecule = "COP(C)(=O)C(Cc1c[nH]c2ccccc12)NC(=O)OCc1ccccc1 (centres undefined)"
reported_metric = "TGI"
reported_measurement = "> 100 µM"

[[record]]
molecule = "COc1cc2c(cc1OC)-c1ncc3cc4c(cc3c1C2)OCO4"
reported_metric = "TGI"
reported_measurement = "> 100 µM"

[[record]]
molecule = "COC(=O)C1C2CC3C(OC(=O)C31)C2OC(=O)[C@](OC)(c1ccccc1)C(F)(F)F (some centres undefined)"
reported_metric = "TGI"
reported_measurement = "> 100 µM"

[[record]]
molecule = "C#Cc1cc2c(N)c(C(=O)c3cc(OC)c(OC)c(OC)c3)[nH]c2cc1OC"
reported_metric = "TGI"
reported_measurement = "20 µM"

[[record]]
molecule = "O=C1C[C@H](c2ccc(O)c(O)c2)Oc2cc(O)cc(O)c21"
reported_metric = "TGI"
reported_measurement = "> 100 µM"

[[record]]
molecule = "Cc1nnc(-c2ccc(-c3nc4ccccc4o3)cc2)o1"
reported_metric = "TGI"
reported_measurement = "> 100 µM"

[[record]]
molecule = "CC[C@H](C)C1=C(OC(C)=O)[N@+]2([O-])Oc3ccc(-c4c(OC(C)=O)c(OC(C)=O)c(-c5ccc(OC(C)=O)cc5)c(OC(C)=O)c4OC(C)=O)cc3O[C@]2([C@@H](C)CC)C(=O)N1OC(C)=O"
reported_metric = "TGI"
reported_measurement = "22.4 µM"

[[record]]
molecule = "COc1ccc2[nH]c(O)c(/C=c3/cc4c(c(-c5ccc(F)cc5)n3)=Nc3ccccc3-4)c2c1"
reported_metric = "TGI"
reported_measurement = "32.9 µM"

[[record]]
molecule = "Cc1ccc2c(c1)C(=O)c1c-2n(CCCN=[N+]=[N-])c(=O)c2cc([N+](=O)[O-])ccc12"
reported_metric = "TGI"
reported_measurement = "> 100 µM"

[[record]]
molecule = "CCOP(=O)(OCC)C(Nc1ccc(F)cc1)c1ccccc1 (centres undefined)"
reported_metric = "TGI"
reported_measurement = "> 100 µM"

[[record]]
molecule = "c1ccc(C2[C@@H]3CCCc4ccccc4C3=NN2c2ccccc2)cc1 (some centres undefined)"
reported_metric = "TGI"
reported_measurement = "> 100 µM"

[[record]]
molecule = "CO[C@H](C(=O)O)[C@@H]1Cc2cc3cc(OC4CC(OC5CC(O)C(O)C(C)O5)C(O)C(C)O4)c(C)c(O)c3c(O)c2C(=O)[C@H]1OC1CC(OC2CC(OC3CC(C)(O)C(O)C(C)O3)C(O)C(C)O2)C(O)C(C)O1 (some centres undefined)"
reported_metric = "TGI"
reported_measurement = "2.23 µM"

[[record]]
molecule = "CN(C)CC1CCCC/C1=N/OC(=O)c1ccc(Cl)c(Cl)c1 (centres undefined)"
reported_metric = "TGI"
reported_measurement = "> 100 µM"

[[record]]
molecule = "Nc1c(C(=O)Nc2cccc(Br)c2)sc2nc3c(cc12)C(O)CCC3 (centres undefined)"
reported_metric = "TGI"
reported_measurement = "23.5 µM"

[[record]]
molecule = "C1C[OH+]CC[OH+]CC[OH+]CC[OH+]CC[OH+]CC[OH+]1.[Cl-].[Nb+5]"
reported_metric = "TGI"
reported_measurement = "> 100 µM"

[[record]]
molecule = "O=C1c2cc([N+](=O)[O-])sc2C(=O)c2ccsc21"
reported_metric = "TGI"
reported_measurement = "0.751 µM"

[[record]]
molecule = "C[N+](C)(N)c1nc(N)c(C#N)c(C#N)c1C#N"
reported_metric = "TGI"
reported_measurement = "> 10 µM"

